subjectOfTest: Sigma non-opioid intracellular receptor 1 (Cavia porcellus, UniProt Q60492)
Sequence (Q60492 whole entry): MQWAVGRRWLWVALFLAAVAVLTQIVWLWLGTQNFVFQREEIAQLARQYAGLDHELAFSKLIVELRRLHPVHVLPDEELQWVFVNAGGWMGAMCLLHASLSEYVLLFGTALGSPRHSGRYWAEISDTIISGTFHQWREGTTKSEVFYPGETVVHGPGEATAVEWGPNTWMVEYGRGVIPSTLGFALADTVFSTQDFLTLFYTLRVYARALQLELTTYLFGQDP
testSummary: Displacement of (+)-[3H]pentazocine from sigma-1 receptor in guinea pig brain membrane homogenate after 90 mins by liquid scintillation counting analysis
Threshold check on Ki: strictly below 20 µM is fulfilled; on or above 20 µM is not fulfilled.

| substanceSmiles | subjectOfTest | groupLabel |
| --- | --- | --- |
| COc1cccc(Cn2cc(-c3ccc(C(=O)NCCCCN4CCc5cc(OC)c(OC)cc5C4)cc3)nn2)c1 | Sigma non-opioid intracellular receptor 1 (Cavia porcellus, UniProt Q60492) | fulfilled |

Req: Please indicate whether the reported Ki of COc1cc2c(cc1OC)CN(CCCCNC(=O)c1cc(-n3cc(CN(C)C)nn3)ccc1OC)CC2 is strictly below 20 µM.
Resp: not fulfilled

Req: Is 20 µM strictly greater than the compound's reported Ki? compound: COc1ccc(-n2cc(C(=O)NCCN3CCc4cc(OC)c(OC)cc4C3)nn2)cc1
Resp: not fulfilled

Req: Given COc1ccc(Cn2cc(C(=O)NCCN3CCc4cc(OC)c(OC)cc4C3)nn2)cc1 , is recorded Ki strictly lower than 20 µM?
Resp: not fulfilled

Req: Confirm or reject: Ki of COc1ccc(Cn2cc(-c3ccc(C(=O)NCCCCN4CCc5cc(OC)c(OC)cc5C4)cc3)nn2)cc1 lies strictly below 20 µM
Resp: fulfilled

Req: Would you kindly verify if Ki of COc1ccc(-n2cc(C(=O)NCCCCN3CCc4cc(OC)c(OC)cc4C3)nn2)cc1 is strictly less than 20 µM?
Resp: not fulfilled

====

subjectOfTest: Sigma non-opioid intracellular receptor 1 (Cavia porcellus)
testSummary: Displacement of (+)-[3H]pentazocine from sigma-1 receptor in guinea pig brain membrane homogenate after 90 mins by liquid scintillation counting analysis
Answer each item with its documented pKi.
One number for each entry, as −log10 of the molar value.

Here's what some known entries look like.
| substanceSmiles | pKi |
| --- | --- |
| COc1cccc(Cn2cc(-c3cccc(C(=O)NCCCCN4CCc5cc(OC)c(OC)cc5C4)c3)nn2)c1 | 5.76 |
| COc1cccc(-n2cc(C(=O)NCCCCN3CCc4cc(OC)c(OC)cc4C3)nn2)c1 | 4.69 |
| COc1cc2c(cc1OC)CN(CCCCNC(=O)c1cn(Cc3cccc(O)c3)nn1)CC2 | 5.09 |
| COc1cc2c(cc1OC)CN(CCCCNC(=O)c1cn(Cc3ccccc3)nn1)CC2 | 5.35 |

# batch size: 5; output pKi per entry
1. COc1cc2c(cc1OC)CN(CCCCNC(=O)c1c[nH]nn1)CC2
2. COc1cc2c(cc1OC)CN(CCCCNC(=O)c1cc(-n3cc(-c4cncn4C)nn3)ccc1OC)CC2
3. COc1ccccc1Cn1cc(C(=O)NCCCCN2CCc3cc(OC)c(OC)cc3C2)nn1
4. COc1cc2c(cc1OC)CN(CCCCNC(=O)c1ccc(-c3cn(CCOCCOCCF)nn3)cc1)CC2
5. COc1cc2c(cc1OC)CN(CCCCNC(=O)c1ccc(-c3cn(CCOCCF)nn3)cc1)CC2

Resp:
[4.96, 5.20, 4.69, 4.80, 4.83]

====

testSummary: Selectivity ratio of Ki for sigma-1 receptor in guinea pig brain membrane homogenate to Ki for sigma-2 receptor in rat liver membrane homogenate
Type: cell membranes
So I've got a bunch of molecules here, and I need their Ratio Ki values.
Numbers only.

Solved entries (count: 2):
| substanceSmiles | Ratio Ki |
| --- | --- |
| COc1cc2c(cc1OC)CN(CCCCNC(=O)c1cn(-c3ccccc3OCCF)nn1)CC2 | 713 |
| COc1cccc(Cn2cc(-c3cccc(C(=O)NCCCCN4CCc5cc(OC)c(OC)cc5C4)c3)nn2)c1 | 26 |

For every listed record, write down its Ratio Ki.
1. COc1ccccc1Cn1cc(-c2ccc(C(=O)NCCCCN3CCc4cc(OC)c(OC)cc4C3)cc2)nn1
2. COc1cc2c(cc1OC)CN(CCCCNC(=O)c1cn(Cc3ccc(OCCF)cc3)nn1)CC2

Resp:
156
447

Provide Ratio Ki for all items below, preserving their order.
1. COc1cc2c(cc1OC)CN(CCCCNC(=O)c1cn(Cc3ccc(O)cc3)nn1)CC2
2. COc1ccc(-n2cc(C(=O)NCCCCN3CCc4cc(OC)c(OC)cc4C3)nn2)cc1
3. COc1cc2c(cc1OC)CN(CCCCNC(=O)c1cn(Cc3cccc(O)c3)nn1)CC2
4. COc1cc2c(cc1OC)CN(CCCCNC(=O)c1cc(-n3cc(-c4cncn4C)nn3)ccc1OC)CC2

Resp:
1: 5480; 2: 7120; 3: 359; 4: 307

Items follow; give Ratio Ki for each.
1. COc1cccc(Cn2cc(-c3ccc(C(=O)NCCCCN4CCc5cc(OC)c(OC)cc5C4)cc3)nn2)c1
2. COc1ccc(Cn2cc(-c3ccc(C(=O)NCCCCN4CCc5cc(OC)c(OC)cc5C4)cc3)nn2)cc1
3. COc1cc2c(cc1OC)CN(CCCCNC(=O)c1cc(-n3cc(CN(C)C)nn3)ccc1OCCF)CC2
4. COc1cc2c(cc1OC)CN(CCCCNC(=O)c1cn(Cc3cccc(OCCF)c3)nn1)CC2
5. COc1cc2c(cc1OC)CN(CCNC(=O)c1cn(-c3ccccc3OC)nn1)CC2
6. COc1ccccc1Cn1cc(C(=O)NCCCCN2CCc3cc(OC)c(OC)cc3C2)nn1

Resp:
1: 174; 2: 406; 3: 232; 4: 744; 5: 103; 6: 2120

// field: Ratio Ki; key: COc1cc2c(cc1OC)CN(CCCCNC(=O)c1cn(-c3ccccc3OC)nn1)CC2 ; value = 8740
